All values here come from patent US20230203146A1.

TEST TARGET: T1, recombinant human Ang2-FLD (human, UniProt O15123 275-496, limits assumed)
T1 construct: domain: FLD; not used
T1 sequence (looked up): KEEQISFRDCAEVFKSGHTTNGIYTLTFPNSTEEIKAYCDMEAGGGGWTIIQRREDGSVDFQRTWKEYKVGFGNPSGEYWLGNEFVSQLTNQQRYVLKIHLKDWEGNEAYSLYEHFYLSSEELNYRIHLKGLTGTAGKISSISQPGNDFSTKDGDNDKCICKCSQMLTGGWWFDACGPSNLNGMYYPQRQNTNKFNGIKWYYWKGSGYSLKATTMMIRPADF
ASSAY PROTOCOL: ProteOn off-rate assay, periplasmic extract 1:10 over coated human Ang2-FLD
MEASURED PROPERTY: fold improvement (off-rate against VHH 00027)

# example entries with known answers
BINDER: VHH 64B02 (VHH, periplasmic extract; not shown: C-terminal c-myc tag and His6 tag) VHH: EVQLVESGGGLVQAGGFLRLTCAVSGFTLDDYAIGWFRQAPGKEREGVSSIRDNDGSTYYADSVKGRFTISSDNVKNTVYLQMNSLKPEDTAVYYCAAVPAGRLRFGEQWYPIYEYDAWGQGTLVTVSS
RESULT: 8.5 fold

BINDER: VHH 64D11 (VHH, periplasmic extract; not shown: C-terminal c-myc tag and His6 tag) VHH: EVQLVESGGGQAQAGGSLRLSCAVSGFTLDDYAIGWFRQAPGKEREGVSSIRDNDGSTYYTDSVKGRFTISSDNDKNTVYLQMNSLKPEDTAVYYCAAVPAGRLRFGEQWYPIYEYDAWGQGTLVTVSS
RESULT: 10.3 fold

BINDER: VHH 64G01 (VHH, periplasmic extract; not shown: C-terminal c-myc tag and His6 tag) VHH: EVQLVESGGGLVQAGGSLRLSCAASGFTLDDYAIGWFRQAPGKEREGVSSIRDNDGSTYYADSVKGRFIISSDNDKNTVYLQMNNLKPEDTAVYYCAAVPAGRLRYGEQWYPIYEYDAWGQGTLVTVSS
RESULT: 8.2 fold

Next, consider the following binder.
For VHH 58D10 (VHH, periplasmic extract; not shown: C-terminal c-myc tag and His6 tag) VHH: EELLVESGGGSVQAGGSLKLSCAASGLTLDDYAIGWFRQAPGKEREGVSSIRDNDGSTYYADSVKGRFTISSDNDKNTVYLQMNSLKPEDTAVYYCAAVPAGRLRFGEQWYPIYEYDAWGQGTLVTVSS the binder record lists fold improvement (off-rate against VHH 00027) as 8.1 fold
